Origin of the recorded values: ChEMBL document CHEMBL1125902

Test system Adenosine A2 receptor (Homo sapiens, UniProt P29275+P29274), -Log EC50 listed for each of the compounds.

The following compounds have reported results that may help.
Compound | Target | -Log EC50
Nc1nc(OCCc2cccc(Cl)c2)nc2c1ncn2C1O[C@@H](CO)[C@H](O)[C@@H]1O (some centres not stated) | Adenosine A2 receptor (Homo sapiens, UniProt P29275+P29274) | 8.52
Nc1nc(OCCc2ccc3ccccc3c2)nc2c1ncn2C1O[C@@H](CO)[C@H](O)[C@@H]1O (some centres not stated) | Adenosine A2 receptor (Homo sapiens, UniProt P29275+P29274) | 9.3
Nc1nc(OCCc2cccs2)nc2c1ncn2C1O[C@@H](CO)[C@H](O)[C@@H]1O (some centres not stated) | Adenosine A2 receptor (Homo sapiens, UniProt P29275+P29274) | 8.43
Cc1ccc(CCOc2nc(N)c3ncn(C4O[C@@H](CO)[C@H](O)[C@@H]4O)c3n2)cc1 (some centres not stated) | Adenosine A2 receptor (Homo sapiens, UniProt P29275+P29274) | 9.72
Cc1cccc(CCOc2nc(N)c3ncn(C4O[C@@H](CO)[C@H](O)[C@@H]4O)c3n2)c1 (some centres not stated) | Adenosine A2 receptor (Homo sapiens, UniProt P29275+P29274) | 8.8

Go through the list and state -Log EC50 for each entry.
1. Nc1nc(OCc2ccccc2)nc2c1ncn2C1O[C@@H](CO)[C@H](O)[C@@H]1O (some centres not stated)
2. COc1cc(CCOc2nc(N)c3ncn(C4O[C@@H](CO)[C@H](O)[C@@H]4O)c3n2)cc(OC)c1OC (some centres not stated)
3. COc1ccccc1CCOc1nc(N)c2ncn(C3O[C@@H](CO)[C@H](O)[C@@H]3O)c2n1 (some centres not stated)
4. COc1cccc(CCOc2nc(N)c3ncn(C4O[C@@H](CO)[C@H](O)[C@@H]4O)c3n2)c1 (some centres not stated)

Data returned:
1. 6.38
2. 7.66
3. 7.5
4. 8.59
